method-summary: Pharmacokinetic analysis in rats (AND in plasma by HPLC)
Parameters: species or system male Sprague Dawley rats
reported-conditions: male, Sprague Dawley, in vivo; rat, oral, 100 mg/kg (AND equivalent)
Protocol: The pharmacokinetic analysis was carried out in male Sprague Dawley rats. The animals were kept in light controlled environment (Photoperiod~12 h, 23 ± 1 °C, 50 ± 5% humidity) with access to food and water ad libitum. […] The AND in plasma was monitored up to 48 h post oral administration of AND and AND-2-HyP-β-CYD complex. […] The plasma was extracted from the blood by centrifugation at 5000 rpm for 20 min at 4 °C and stored at -40 °C until analyzed. […]
observation-type: half-life (h)

In [3]: df
Out[3]:
                                   compound  unit_name  value_observed
0  C=C1CC[C@@H]2[C@](C)(CO)[C@H](O)CC[C@@]2(C)[C@@H]1C/C=C1/C(=O)OC[C@H]1O [AND, Andrographolide]          h            5.92
